- System: HCT116 WT cells
- protocol.text: HCT116 proliferation assay, WT cells (CellTiter-Glo, 6 days)
- Assay type: cell-based
- run.parameters: Homo sapiens, HCT-116, 144 h, read-out: Prolif_HCT116-WT IC50
Readings of IC50 for the listed compounds

In the examples that follow, each entry is paired with its recorded IC50.
[
  {
    "compound": "Cc1cc2cc(C(=O)N(Cc3ccc(Br)cn3)[C@H](C)c3ncccc3Cl)ccc2nc1N",
    "IC50": "> 10 µM"
  },
  {
    "compound": "C[C@H](c1ncccc1F)N(Cc1ccc(C#N)cn1)C(=O)c1cnc2nc(N)c(Br)cc2c1",
    "IC50": "> 10 µM"
  },
  {
    "compound": "Cc1cc2cc(C(=O)N(Cc3ccc(C(F)(F)F)cn3)C3CC(C)(C)c4ccccc43)ccc2nc1N (centres unmarked)",
    "IC50": "> 1 µM"
  },
  {
    "compound": "C[C@H](c1ncccn1)N(Cc1ccc(Br)nn1)C(=O)c1ccc2nc(N)c(Cl)cc2c1",
    "IC50": "> 10 µM"
  }
]

For the next question, use this compound.
Input: Hello, please tell me recorded IC50 for this one: Cc1cc2cc(C(=O)N(Cc3ccc(C(F)(F)F)cn3)CC3CCOCC3C)ccc2nc1N (centres unmarked)
Output: > 10 µM
